- assay-system: T1, human c-Met ECD-Fc-Flis (human)
- T1 construct: c-Met ECD fused to Fc with flag- and His-tag at the C-terminus; also called human c-Met extracellular domain (ECD)-Fc-Flis fusion; human c-Met-Flis-Fc ECD
- T1 sequence (chain, as listed by the source): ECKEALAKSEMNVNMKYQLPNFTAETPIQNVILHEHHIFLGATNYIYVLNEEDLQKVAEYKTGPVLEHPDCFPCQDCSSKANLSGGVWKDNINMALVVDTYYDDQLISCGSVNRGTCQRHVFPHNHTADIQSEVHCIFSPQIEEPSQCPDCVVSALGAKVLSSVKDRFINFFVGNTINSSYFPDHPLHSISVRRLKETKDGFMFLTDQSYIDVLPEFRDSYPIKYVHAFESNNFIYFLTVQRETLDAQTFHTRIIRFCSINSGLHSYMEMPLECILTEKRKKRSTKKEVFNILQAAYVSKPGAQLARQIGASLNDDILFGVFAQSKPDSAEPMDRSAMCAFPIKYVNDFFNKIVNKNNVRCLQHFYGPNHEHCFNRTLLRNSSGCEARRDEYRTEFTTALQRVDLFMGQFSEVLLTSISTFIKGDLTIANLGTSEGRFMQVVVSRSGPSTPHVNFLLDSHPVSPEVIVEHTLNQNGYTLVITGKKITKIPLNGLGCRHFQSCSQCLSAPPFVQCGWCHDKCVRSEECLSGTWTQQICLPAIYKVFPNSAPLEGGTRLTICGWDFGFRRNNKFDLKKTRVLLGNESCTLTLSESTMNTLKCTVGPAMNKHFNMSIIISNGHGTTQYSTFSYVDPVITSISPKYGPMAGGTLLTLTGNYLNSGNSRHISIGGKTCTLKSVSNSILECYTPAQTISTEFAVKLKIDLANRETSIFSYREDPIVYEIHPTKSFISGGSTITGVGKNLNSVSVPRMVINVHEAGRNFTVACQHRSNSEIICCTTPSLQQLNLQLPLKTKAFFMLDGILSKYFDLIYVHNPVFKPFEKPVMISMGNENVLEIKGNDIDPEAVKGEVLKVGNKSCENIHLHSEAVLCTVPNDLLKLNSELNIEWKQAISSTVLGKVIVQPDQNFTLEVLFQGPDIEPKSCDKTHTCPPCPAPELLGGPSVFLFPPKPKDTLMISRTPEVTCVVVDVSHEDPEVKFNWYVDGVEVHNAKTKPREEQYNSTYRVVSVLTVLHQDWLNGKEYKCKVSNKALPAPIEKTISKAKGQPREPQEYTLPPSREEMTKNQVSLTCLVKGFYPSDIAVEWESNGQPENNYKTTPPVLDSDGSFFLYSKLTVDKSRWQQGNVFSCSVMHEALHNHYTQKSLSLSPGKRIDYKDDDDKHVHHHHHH
- procedure-summary: HGF-blocking ELISA: HGF signal on coated c-Met ECD-Fc-Flis; Ab 0.00 ng/mL (HGF only)
- Excerpt: […]
Reported values of AVG A450 nm for individual entries

- binder: "C8-H241 (antibody, human IgG2, kappa, V domains shown, Named IgG4 kappa; also called Mab C8-H241) VH: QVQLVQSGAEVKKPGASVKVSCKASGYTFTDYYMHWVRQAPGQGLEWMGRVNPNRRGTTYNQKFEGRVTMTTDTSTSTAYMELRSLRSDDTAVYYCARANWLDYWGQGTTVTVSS VL: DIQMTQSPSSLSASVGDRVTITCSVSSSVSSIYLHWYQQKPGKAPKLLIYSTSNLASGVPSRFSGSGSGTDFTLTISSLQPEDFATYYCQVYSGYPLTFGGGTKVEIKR"
  AVG A450 nm / A450 nm: 2.61
- binder: "D11-S17Y (antibody, human IgG2, kappa, V domains shown, Human engineered IgG2 kappa c-Met antibody; also called D11-S17Y IgG2) VH: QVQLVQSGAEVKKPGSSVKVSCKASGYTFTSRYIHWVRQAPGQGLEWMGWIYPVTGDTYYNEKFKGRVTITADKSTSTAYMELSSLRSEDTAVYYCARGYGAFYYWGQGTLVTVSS VL: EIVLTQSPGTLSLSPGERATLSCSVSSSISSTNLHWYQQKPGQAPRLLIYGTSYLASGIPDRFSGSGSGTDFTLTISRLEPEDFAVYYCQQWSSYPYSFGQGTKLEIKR"
  AVG A450 nm / A450 nm: 2.43
- binder: "C8-co-16 (antibody, human IgG2, kappa, V domains shown, Named IgG4 kappa; also called C8-co-16 IgG4) VH: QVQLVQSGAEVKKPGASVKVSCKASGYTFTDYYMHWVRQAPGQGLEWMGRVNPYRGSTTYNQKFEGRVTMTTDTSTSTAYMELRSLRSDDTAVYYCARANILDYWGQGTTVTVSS VL: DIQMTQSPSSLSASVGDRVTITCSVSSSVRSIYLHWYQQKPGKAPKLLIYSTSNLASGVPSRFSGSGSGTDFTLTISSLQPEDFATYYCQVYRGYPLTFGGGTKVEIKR"
  AVG A450 nm / A450 nm: 2.61
- binder: "C8-6 (antibody, human IgG2, kappa, V domains shown, Named IgG4 kappa; also called C8-6 IgG4) VH: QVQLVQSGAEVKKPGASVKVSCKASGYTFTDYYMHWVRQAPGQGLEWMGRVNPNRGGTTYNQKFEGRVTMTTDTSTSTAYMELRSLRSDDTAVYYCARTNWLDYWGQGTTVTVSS VL: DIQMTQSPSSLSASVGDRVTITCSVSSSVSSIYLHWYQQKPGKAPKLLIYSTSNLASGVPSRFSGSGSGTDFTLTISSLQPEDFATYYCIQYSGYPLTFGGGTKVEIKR"
  AVG A450 nm / A450 nm: 2.61
- binder: "D11-8B8 (antibody, human IgG2, kappa, V domains shown, Human engineered IgG2 kappa c-Met antibody; also called Mab D11-8B8; D11-8B8 IgG2) VH: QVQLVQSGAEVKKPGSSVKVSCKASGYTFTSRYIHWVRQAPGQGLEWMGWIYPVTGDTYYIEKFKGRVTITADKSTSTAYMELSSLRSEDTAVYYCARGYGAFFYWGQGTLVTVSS VL: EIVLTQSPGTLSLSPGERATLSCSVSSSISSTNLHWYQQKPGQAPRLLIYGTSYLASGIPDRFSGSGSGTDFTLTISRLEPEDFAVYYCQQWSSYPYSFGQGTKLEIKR"
  AVG A450 nm / A450 nm: 2.43
- binder: "D11-C27G3 (antibody, human IgG2, kappa, V domains shown, Human engineered IgG2 kappa c-Met antibody; also called D11-27G3; D11-C27G3 IgG2) VH: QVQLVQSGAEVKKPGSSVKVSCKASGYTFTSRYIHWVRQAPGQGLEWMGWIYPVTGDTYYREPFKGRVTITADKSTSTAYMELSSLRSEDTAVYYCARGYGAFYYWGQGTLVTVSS VL: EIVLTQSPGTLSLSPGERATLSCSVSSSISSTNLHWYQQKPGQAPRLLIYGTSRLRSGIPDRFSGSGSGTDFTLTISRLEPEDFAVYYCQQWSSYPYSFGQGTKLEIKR"
  AVG A450 nm / A450 nm: 2.43
